ASSAY SYSTEM: recombinant human glucokinase (beta cell isoform) (Homo sapiens, UniProt P35557)
Construct: Full-length glucokinase (beta cell isoform) was His-tagged at the N-terminus; His tag (N); made in house; host or cells: E. coli BL21(DE3), vector pBCGK
Sequence (P35557 whole entry, canonical isoform): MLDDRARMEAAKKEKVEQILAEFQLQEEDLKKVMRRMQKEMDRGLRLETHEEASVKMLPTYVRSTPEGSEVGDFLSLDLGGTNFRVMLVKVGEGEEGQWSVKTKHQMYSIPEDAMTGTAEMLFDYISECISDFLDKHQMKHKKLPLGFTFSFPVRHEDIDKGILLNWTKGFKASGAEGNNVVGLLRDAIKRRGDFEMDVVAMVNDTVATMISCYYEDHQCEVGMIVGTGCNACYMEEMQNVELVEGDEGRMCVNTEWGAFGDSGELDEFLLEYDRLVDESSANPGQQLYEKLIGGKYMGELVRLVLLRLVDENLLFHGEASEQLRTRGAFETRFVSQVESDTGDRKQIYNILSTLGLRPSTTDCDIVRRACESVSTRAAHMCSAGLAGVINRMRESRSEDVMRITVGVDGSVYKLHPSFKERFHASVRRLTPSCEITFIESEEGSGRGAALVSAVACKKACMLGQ
TEST DETAILS: Assay 1: Evaluating Activator Potency and Maximum Activation at 5 mM Glucose
Type: biochemical
MEASUREMENT CONDITIONS: Assay 1; 5 mM glucose; NADH depletion at 340 nm, PK/LDH coupled; read-out: Glucokinase EC50
VALUE TYPE: EC50 (nM)

Below, each entry is followed by its recorded EC50 result.
CCn1cc2c(Oc3ccc(S(C)(=O)=O)cc3)cc(C(=O)Nc3ccc(C)cn3)cc2n1; 1410
CCS(=O)(=O)c1ccc(Oc2cc(C(=O)Nc3ccccn3)cc3nn(C)cc23)cc1; 1340
Cn1cc2c(Oc3ccc(S(=O)(=O)C4CC4)cc3)cc(C(=O)Nc3ccccn3)cc2n1; 1500
CCn1cc2c(Oc3cnc(C(=O)N(C)C)cn3)cc(C(=O)Nc3ccc(C)cn3)cc2n1; 776
Cc1ccc(NC(=O)c2cc(Oc3cnc(C(=O)N(C)C)cn3)c3cn(C)nc3c2)nc1; 1550

A: CCn1cc2c(Oc3ccc(S(=O)(=O)C4CC4)cc3)cc(C(=O)Nc3cnc(C)cn3)cc2n1
B: CCn1cc2c(Oc3ccc(S(=O)(=O)CC)cc3)cc(C(=O)Nc3ccc(C)cn3)cc2n1
Incoming: Lab note: record which item had the higher EC50, A or B . Indicate your choice by writing its label.
Outgoing: A
(A: 1480 nM, B: 463 nM)
